System: M14
measurement_description: Growth inhibition of human M14 cells after 48 hrs by sulforhodamine B assay
Assay type: functional
condition_parameters: M14, 48 h
reported_endpoint: GI50 (nM)
Unit nM implied. Number only.

Q) Look up and report measured GI50 for this entry: COc1cc(C)cc(-c2c(-c3ccnc(-c4ccc(C(C)=O)cc4)c3)cnn2CC#N)c1
A) 1970

Q) Look up and report measured GI50 for this entry: COc1cc(C)cc(-c2nn(CC#N)cc2-c2ccc(-c3cccc(C(C)=O)c3)nc2)c1
A) 1170

Q) Look up and report measured GI50 for this entry: Cc1cc(O)cc(-c2nn(CC#N)cc2-c2ccnc(-c3ccc(Oc4ccccc4)cc3)c2)c1
A) 1700

Q) Look up and report measured GI50 for this entry: Cc1cc(O)cc(-c2nn(CC#N)cc2-c2ccnc(-c3ccc(N(C)C)cc3)c2)c1
A) 1830

Q) Look up and report measured GI50 for this entry: COc1cc(C)cc(-c2nn(CC#N)cc2-c2ccnc(-c3ccc(N(C)C)cc3)c2)c1
A) 258

Q) Look up and report measured GI50 for this entry: COc1cc(C)cc(-c2c(-c3ccnc(-c4ccc(N(C)C)cc4)c3)cnn2CC#N)c1
A) 54.1

* * *

Record form. Attribute: growth at 0.01 µM. Fill in for each entry.
Test system: BT-549
measurement_description: Cytotoxicity against human BT549 cells assessed as cell growth at 0.01 uM after 48 hrs by sulforhodamine B assay
Type: functional
condition_parameters: BT-549, 48 h, read-out: Activity
Unit % implied. Number only.

Q) Write down measured growth at 0.01 µM (BT-549) for this molecule. Cc1cc(O)cc(-c2nn(CC#N)cc2-c2ccnc(-c3ccc(Oc4ccccc4)cc3)c2)c1
A) 91

Q) Write down measured growth at 0.01 µM (BT-549) for this molecule. COc1cc(C)cc(-c2nn(CC#N)cc2-c2ccc(-c3cccc(C(C)=O)c3)nc2)c1
A) 90

Q) Write down measured growth at 0.01 µM (BT-549) for this molecule. Cc1cc(O)cc(-c2nn(CC#N)cc2-c2ccnc(-c3ccc(N(C)C)cc3)c2)c1
A) 91

* * *

System: OVCAR-8
measurement_description: Cytotoxicity against human OVCAR8 cells assessed as cell growth at 10 uM
Assay type: functional
condition_parameters: read-out: Activity
reported_endpoint: growth at 10 µM (%)
Unit % implied. Number only.

Q) Look up and report measured growth at 10 µM for this entry: COc1cc(C)cc(-c2nn(CC#N)cc2-c2ccnc(-c3ccc(N(C)C)cc3)c2)c1
A) 12

Q) Look up and report measured growth at 10 µM for this entry: Cc1cc(O)cc(-c2nn(CC#N)cc2-c2ccnc(-c3ccc(N(C)C)cc3)c2)c1
A) 45

Q) Look up and report measured growth at 10 µM for this entry: COc1cc(C)cc(-c2nn(CC#N)cc2-c2ccnc(-c3ccc(C#N)cc3)c2)c1
A) 84.2

Q) Look up and report measured growth at 10 µM for this entry: COc1cc(C)cc(-c2nn(CC#N)cc2-c2ccnc(-c3ccc(Oc4ccccc4)cc3)c2)c1
A) 84.4

Q) Look up and report measured growth at 10 µM for this entry: Cc1cc(O)cc(-c2nn(CC#N)cc2-c2ccnc(-c3ccc(Oc4ccccc4)cc3)c2)c1
A) 37.2

Q) Look up and report measured growth at 10 µM for this entry: COc1cc(C)cc(-c2c(-c3ccnc(-c4ccc(N(C)C)cc4)c3)cnn2CC#N)c1
A) 25.4

Q) Look up and report measured growth at 10 µM for this entry: COc1cc(C)cc(-c2nn(CC#N)cc2-c2ccc(-c3cccc(C(C)=O)c3)nc2)c1
A) 31.4

Q) Look up and report measured growth at 10 µM for this entry: COc1cc(C)cc(-c2nn(CC#N)cc2-c2ccnc(-c3ccc(C(C)=O)cc3)c2)c1
A) 80.6

Q) Look up and report measured growth at 10 µM for this entry: COc1cc(C)cc(-c2nn(CC#N)cc2-c2ccnc(-c3cccc(NC(C)=O)c3)c2)c1
A) 88

Q) Look up and report measured growth at 10 µM for this entry: Cc1cc(O)cc(-c2nn(CC#N)cc2-c2ccnc(-c3ccccc3)c2)c1
A) 70.2

Q) Look up and report measured growth at 10 µM for this entry: COc1cc(C)cc(-c2c(-c3ccnc(-c4ccc(C(C)=O)cc4)c3)cnn2CC#N)c1
A) 80.1

Q) Look up and report measured growth at 10 µM for this entry: Cc1cc(O)cc(-c2nn(CC#N)cc2-c2ccnc(-c3ccc(C#N)cc3)c2)c1
A) 72.9

* * *

Record form. Attribute: growth at 0.01 µM. Fill in for each entry.
System: PC-3
measurement_description: Cytotoxicity against human PC3 cells assessed as cell growth at 0.01 uM after 48 hrs by sulforhodamine B assay
Format: functional
condition_parameters: PC-3, 48 h, read-out: Activity
Unit % implied. Number only.

Q) Look up and report measured growth at 0.01 µM for this entry: COc1cc(C)cc(-c2c(-c3ccnc(-c4ccc(C(C)=O)cc4)c3)cnn2CC#N)c1
A) 88

Q) Look up and report measured growth at 0.01 µM for this entry: COc1cc(C)cc(-c2nn(CC#N)cc2-c2ccc(-c3cccc(C(C)=O)c3)nc2)c1
A) 88

Q) Look up and report measured growth at 0.01 µM for this entry: Cc1cc(O)cc(-c2nn(CC#N)cc2-c2ccnc(-c3ccc(N(C)C)cc3)c2)c1
A) 92

* * *

System: PC-3
measurement_description: Cytotoxicity against human PC3 cells assessed as cell growth at 10 uM
Format: functional
condition_parameters: read-out: Activity
Record form. Attribute: growth at 10 µM. Fill in for each entry.
Unit % implied. Number only.

Q) Look up and report measured growth at 10 µM for this entry: COc1cc(C)cc(-c2c(-c3ccnc(-c4cccc(NC(C)=O)c4)c3)cnn2CC#N)c1
A) 85.8

Q) Look up and report measured growth at 10 µM for this entry: COc1cc(C)cc(-c2nn(CC#N)cc2-c2ccnc(-c3ccc(C#N)cc3)c2)c1
A) 85.9

Q) Look up and report measured growth at 10 µM for this entry: COc1cc(C)cc(-c2nn(CC#N)cc2-c2ccnc(-c3ccc(C(C)=O)cc3)c2)c1
A) 82.9

Q) Look up and report measured growth at 10 µM for this entry: Cc1cc(O)cc(-c2nn(CC#N)cc2-c2ccnc(-c3ccc(N(C)C)cc3)c2)c1
A) 40.4

Q) Look up and report measured growth at 10 µM for this entry: COc1cc(C)cc(-c2nn(CC#N)cc2-c2ccnc(-c3ccc(Oc4ccccc4)cc3)c2)c1
A) 91.9

Q) Look up and report measured growth at 10 µM for this entry: Cc1cc(O)cc(-c2nn(CC#N)cc2-c2ccnc(-c3ccccc3)c2)c1
A) 88.7

* * *

System: KM12
measurement_description: Growth inhibition of human KM12 cells after 48 hrs by sulforhodamine B assay
Assay type: functional
condition_parameters: KM12, 48 h, read-out: LC50 (the source's name)
reported_endpoint: CC50

Q) Look up and report measured CC50 for this entry: COc1cc(C)cc(-c2c(-c3ccnc(-c4ccc(C(C)=O)cc4)c3)cnn2CC#N)c1
A) > 100 µM

Q) Look up and report measured CC50 for this entry: COc1cc(C)cc(-c2c(-c3ccnc(-c4ccc(N(C)C)cc4)c3)cnn2CC#N)c1
A) > 100 µM

Q) Look up and report measured CC50 for this entry: COc1cc(C)cc(-c2nn(CC#N)cc2-c2ccc(-c3cccc(C(C)=O)c3)nc2)c1
A) > 100 µM

* * *

measurement_description: Cytotoxicity against human Hs 578T cells assessed as cell growth at 10 uM
Assay type: functional
condition_parameters: read-out: Activity
Would you mind labelling by growth at 10 µM? At or over 80% is Criterion met, under is Criterion not met.

Q) Exam item: decide whether the reported growth at 10 µM for COc1cc(C)cc(-c2nn(CC#N)cc2-c2ccnc(-c3ccc(C(C)=O)cc3)c2)c1 is at least 80%.
A) Criterion met

Q) Exam item: decide whether the reported growth at 10 µM for Cc1cc(O)cc(-c2nn(CC#N)cc2-c2ccnc(-c3ccc(C#N)cc3)c2)c1 is at least 80%.
A) Criterion met

Q) Exam item: decide whether the reported growth at 10 µM for Cc1cc(O)cc(-c2nn(CC#N)cc2-c2ccnc(-c3ccc(N(C)C)cc3)c2)c1 is at least 80%.
A) Criterion not met

Q) Exam item: decide whether the reported growth at 10 µM for COc1cc(C)cc(-c2c(-c3ccnc(-c4ccc(N(C)C)cc4)c3)cnn2CC#N)c1 is at least 80%.
A) Criterion not met

Q) Exam item: decide whether the reported growth at 10 µM for Cc1cc(O)cc(-c2nn(CC#N)cc2-c2ccnc(-c3ccc(Oc4ccccc4)cc3)c2)c1 is at least 80%.
A) Criterion not met

Q) Exam item: decide whether the reported growth at 10 µM for COc1cc(C)cc(-c2nn(CC#N)cc2-c2ccc(-c3cccc(C(C)=O)c3)nc2)c1 is at least 80%.
A) Criterion not met

Q) Exam item: decide whether the reported growth at 10 µM for COc1cc(C)cc(-c2c(-c3ccnc(-c4cccc(NC(C)=O)c4)c3)cnn2CC#N)c1 is at least 80%.
A) Criterion met

Cited source: ChEMBL document CHEMBL1165950
